Provenance of the data: paper PMC4773758

- Assayed System: PTH(1–84) (Homo sapiens)
- Construct: SUMO (N, cleaved yes); His-tag (C); made in house; host or cells: E. coli BL21 codon+
- Sequence (P01270 32-115): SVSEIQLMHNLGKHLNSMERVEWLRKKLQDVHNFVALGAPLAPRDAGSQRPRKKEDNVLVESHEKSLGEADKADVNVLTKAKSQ
- Protocol Description: Fluorescence quenching titration with PTH(1–84)
- Type: binding
- Condition Details: fluorescence titration against PTH(1–84)
Measurement Name: Kd (mM)

[[record]]
compound = "OCc1c2ccccc2cc2ccccc12 [9-anthracenemethanol, reference compound]"
assayed_system = "PTH(1–84) (Homo sapiens)"
quantitative_readout = 3.52

